- Organism: Rattus norvegicus
- Procedure Summary: Open TG-GATES - Regimen: Single
- Assay type: toxicity, organism-based, Sprague-Dawley
- Parameters: regimen Single, gender Male, age 6 weeks
- Measurement Context: in vivo, po, 0 mg/kg, 6 h, tissue Blood, route gavage, dose level Control
A collection of compounds and their measured Ret
Recorded Endpoint: Ret (%)

>>> assay_result("CCCNC(=O)NS(=O)(=O)c1ccc(Cl)cc1 [CHLORPROPAMIDE]")
9.2
>>> assay_result("COc1cc2c(c(OC)c1OC)-c1ccc(OC)c(=O)cc1[C@@H](NC(C)=O)CC2 [COLCHICINE]")
9.6
>>> assay_result("O=C(CCCN1CCC(O)(c2ccc(Cl)cc2)CC1)c1ccc(F)cc1 [HALOPERIDOL]")
8.8
>>> assay_result("CCOc1ccc(NC(=O)CC(C)O)cc1 (centres undefined) [BUCETIN]")
8.6
